Data credit: PubChem BioAssay (NCI)

System: XF 498 CNS
Assay: NCI tumour cell line growth inhibition, 48 h
METRIC: TGI

Below are worked cases with known answers.
CCCCCCCCCCCc1nnc(N)o1 = > 100 µM
O/N=C1/C(=C/c2ccc3c(c2)OCO3)CCCC1C(NO)c1ccc2c(c1)OCO2 (stereo not given) = 62.2 µM
C=C(C)C(O)CCC1(C)C=Cc2c(c(C)cc3c2[nH]c2ccccc23)O1 (stereo not given) = 25 µM
Cc1ccc2c(c1)C(=O)N(N(C)C)CC(=O)N2 = > 100 µM
CC1=C(C(=O)Nc2cc(=O)n(C)c(=O)n2C)C(c2ccco2)C(C(=O)Nc2cc(=O)n(C)c(=O)n2C)=C(C)N1 = > 100 µM

# map each molecule to its TGI
1. NC(=O)C(=O)N/N=C1\C(=O)N(c2ccc(Cl)cc2Cl)C(=O)C1C(=O)Nc1ccc(Cl)cc1Cl (stereo not given)
2. CS(=O)(=O)OC1CCC2(C#N)CCC1C2=O (stereo not given)
3. COC(=O)CC1C[C@H](C#N)N(C(=O)c2ccccc2)C[C@@H]1CC[N+](=O)[O-] (stereo not given in full)
4. CSC(=Nc1nnc(-c2ccc([N+](=O)[O-])cc2)s1)SC

a:
["> 100 µM", "> 100 µM", "> 100 µM", "43.3 µM"]

q: Could you share which TGI value was measured for O=C(O)CCC(=O)N1c2ccccc2CC1c1c[nH]c2ccccc12 (stereo not given) ?
a: > 100 µM

---

Test system: HCT-15 colon
Test: NCI tumour cell line growth inhibition, 48 h
METRIC: GI50

Provide GI50 values for the following items, in order.
1. CC[C@@H]1c2c(C#N)ncn2-c2cnc(Nc3ccc(C(=O)NC4CCN(C5CCN(CC6CC6)CC5)CC4)cc3OC)nc2N1C1CCCC1
2. CCN(Cc1cc(Nc2nc(C)cn3c(-c4cn[nH]c4)cnc23)sn1)C(C)(C)CO

a:
0.379 µM
0.0746 µM

Give one value of GI50 per listed compound.
1. CCCCON(OC(=O)c1ccc2ccccc2c1)C(=O)c1ccccc1
2. N.N.N.N.N.NC(=O)c1nn[n-]n1.[Cl-].[Co+3]
3. C/C=C(\C)C(=O)NC1=CC[C@@]2(C)C(=CCC3C2CC[C@@]2(C)C3CC[C@@H]2C(C)N(C)C)C1=O (some centres undefined)
4. CN1CCC2(CC1)ONC1=NCCN12
5. CCN(Cc1ccc(Cl)cc1)c1ccc(CO)c(Cl)c1

a:
> 100 µM
> 100 µM
1.54 µM
24.1 µM
3.52 µM

---

Tested on: K-562 leukemia
Assay: NCI tumour cell line growth inhibition, 48 h
METRIC: TGI

# example entries with known answers
O=C1C(Cl)=C(Nc2cccc(F)c2)C(=O)N1Cc1ccc(Cl)cc1 = > 32.1 µM
CC[C@@]1(O)C(=O)OCc2c1cc1n(c2=O)Cc2c-1nc1ccccc1c2/C=N\NC(=O)C(N)CO (some centres undefined) = > 100 µM
CCN(CC)CCNc1ccc2nnn3c4ccc(C)cc4c(=O)c1c23 = 25.9 µM

Please go through the list and note TGI for each molecule.
1. CC(C)(C)[Si](C)(C)OCC1OC(n2cnc3c(N)ncnc32)CC1O (centres undefined)
2. CC1=C(C(=O)Nc2cc(=O)n(C)c(=O)n2C)C(c2ccco2)C(C(=O)Nc2cc(=O)n(C)c(=O)n2C)=C(C)N1
3. CCCCCCCCCCCc1nnc(N)o1

a:
["> 100 µM", "> 100 µM", "> 100 µM"]

For every item in the list below, what is its measured TGI?
1. COC12C=C/C(=C(/C(=O)OCc3cncnc3)C(=O)CCCCCCCCC3(OC)C=C/C(=C(/C(=O)OCc4cncnc4)C(=O)CCCCCCCC1)O3)O2
2. Cn1c(=O)c2c(nc3n(CCCCl)c(=O)ccn23)n(C)c1=O
3. N.N.N.N.N.NC(=O)c1nn[n-]n1.[Cl-].[Co+3]

a:
1. 1.14 µM
2. > 100 µM
3. > 100 µM
